Target: JAK2 (JH1 domain-catalytic, Y1007F, Y1008F) kinase (Homo sapiens (Human), UniProt O60674, Y1007F/Y1008F)
Sequence (O60674 849-1124 Y1007F/Y1008F): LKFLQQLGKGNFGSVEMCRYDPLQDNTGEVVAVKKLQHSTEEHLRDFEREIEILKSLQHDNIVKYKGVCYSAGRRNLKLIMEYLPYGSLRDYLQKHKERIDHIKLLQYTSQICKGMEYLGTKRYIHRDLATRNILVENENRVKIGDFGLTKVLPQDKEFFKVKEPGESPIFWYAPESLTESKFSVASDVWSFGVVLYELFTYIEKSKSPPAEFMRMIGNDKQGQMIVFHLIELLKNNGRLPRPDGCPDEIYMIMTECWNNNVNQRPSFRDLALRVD
Experiment: JAK2 JH1 Domain Binding Assay
Settings: qPCR readout
pKd: −log10 of the molar value.
property: pKd

1) COCc1cc2nc(N3CC[C@@H]4[C@@H](C3)OCCN4C(=O)Nc3cc(C(F)(F)F)cn(C)c3=O)cnc2[nH]1	7.30 to 8.00
2) CN(C(=O)Nc1cc(C(F)(F)F)cn(C)c1=O)[C@H]1C[C@H]2C[C@@H]1CN2c1cnc(NC(=O)C2CC2)cn1 (single isomer, unassigned)	7.30 to 8.00
3) CC(=O)Nc1cnc(C2=CC[C@@H](N(C)C(=O)Nc3cc(C(F)(F)F)cn(C)c3=O)CC2)cn1	> 8.00
4) CN(C(=O)Nc1cc(C(F)(F)F)cn(C)c1=O)[C@@H]1CCN(c2cnc3[nH]ncc3c2)CC1(F)F	> 8.00
5) CN(C(=O)Nc1cc(C(F)(F)F)cn(C)c1=O)[C@H]1CCN(c2cnc3[nH]c(=O)[nH]c3c2)C[C@H]1F	> 8.00
6) CN(C(=O)Nc1cc(C(F)(F)F)cn(C)c1=O)C1CC2(C1)CN(c1cnc3[nH]cc(C#N)c3n1)C2	≤ 5.30

----------
Molecular target: JAK2 (JH1 domain-catalytic, Y1007F, Y1008F) kinase (Homo sapiens (Human), UniProt O60674, Y1007F/Y1008F)
Test: JAK2 JH1 Domain Binding Assay
Settings: qPCR readout
pKd: −log10 of the molar value.
# reported pKd; entries follow
property: pKd

1) CN(C(=O)Nc1cncc(C(F)(F)F)c1)[C@@H]1CCN(c2cnc3[nH]ncc3c2)CC1(F)F.CN(C(=O)Nc1cncc(C(F)(F)F)c1)[C@H]1CCN(c2cnc3[nH]ncc3c2)CC1(F)F (mixture of isomers)	> 8.00
2) CN(C(=O)Nc1cc(C(F)(F)F)cn(C)c1=O)[C@H]1CCN(c2cnc3[nH]ccc3n2)C[C@H]1F	> 8.00
3) Cc1n[nH]c2ncc(N3CCC(N(C)C(=O)Nc4cc(C(F)(F)F)cn(C)c4=O)CC3)cc12	> 8.00

----------
Target: JAK2 (JH1 domain-catalytic, Y1007F, Y1008F) kinase (Homo sapiens (Human), UniProt O60674, Y1007F/Y1008F)
Experiment: JAK2 JH1 Domain Binding Assay
Settings: qPCR readout
pKd: −log10 of the molar value.
# reported pKd; entries follow
property: pKd

1. Cc1cc(NC(=O)C2(C3CCN(c4cnccn4)CC3)CC2)cc(C(F)(F)F)c1 [Example I-4]	6.00 to 7.30
2. COc1n[nH]c2ncc(N3CC[C@H]4[C@H](C3)OCCN4C(=O)Nc3cc(C(F)(F)F)cn(C)c3=O)cc12 (single isomer, unassigned) [Example I-169-a]	7.30 to 8.00
3. C[C@H]1C[C@@H](N(C)C(=O)Nc2cc(C(F)(F)F)cn(C)c2=O)CCN1c1cnc2[nH]ccc2n1 [Example I-126-a]	> 8.00
4. CN(C(=O)Nc1cc(C(F)(F)F)cn(C)c1=O)[C@H]1CCN(c2cnc3[nH]n(C)c(=O)c3c2)C[C@H]1F [Example I-89-b]	7.30 to 8.00
5. CN(C(=O)Nc1cc(C(F)(F)F)cn(C)c1=O)[C@H]1CCN(c2cnc3[nH]nc(OC[C@H]4COCCO4)c3c2)C[C@H]1F [Example I-102-b]	> 8.00
6. Cc1c[nH]c2ncc(N3CCC(N(C)C(=O)Nc4cc(C(F)(F)F)cn(C)c4=O)CC3)nc12 [Example I-30]	> 8.00
7. CN(C(=O)Nc1cc(C(F)(F)F)cn(C)c1=O)[C@H]1C[C@H]2C[C@@H]1CN2c1cnc2[nH]ccc2n1 [Example I-43-b]	7.30 to 8.00
8. CN(C(=O)Nc1cc(C(F)(F)F)cn(C)c1=O)[C@H]1CCN(c2cnc3[nH]ncc3c2)CC1(F)F [Example I-29-b]	> 8.00
9. CO[C@H]1CN(c2cnc3[nH]ncc3c2)CC[C@@H]1N(C)C(=O)Nc1cc(C(F)(F)F)cn(C)c1=O [Example I-109-b]	7.30 to 8.00
10. COCc1cc2nc(N3CC[C@@H](N(C)C(=O)Nc4cc(C(F)(F)F)cn(C)c4=O)C[C@H]3C)cnc2[nH]1 [Example I-127-b]	6.00 to 7.30
11. CN(C(=O)Nc1cc(C(F)(F)F)ccn1)[C@H]1CCN(c2cnc3[nH]ncc3c2)C[C@@H]1F [Example I-176]	> 8.00
12. COc1n[nH]c2ncc(N3CC[C@H]4[C@H](C3)OCCN4C(=O)Nc3cc(C(F)(F)F)cn(C)c3=O)cc12 (single isomer, unassigned) [Example I-169-b]	> 8.00
